All values here come from the supplement of paper PMC4022240.

subject_of_test: T1, HaloTag-ATRX ADD domain (163-292)
T1 chain: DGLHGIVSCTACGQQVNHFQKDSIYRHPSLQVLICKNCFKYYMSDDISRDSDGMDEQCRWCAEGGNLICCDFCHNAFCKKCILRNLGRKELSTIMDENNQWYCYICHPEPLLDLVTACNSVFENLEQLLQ
assay_comment: peptide microarray binding signal (635 nm), min-max normalized on array (fraction of array maximum); higher = stronger binding
assay_context: peptide region: Unmod H1 variant; binder concentration: 500 nM
measured_property: peptide microarray binding signal

binder: TKKEIKKVATPKK [Unmod H1 variant T K K E I K K V A T P K K]
result: 0.00952

For this binder ( SKKSVKTPKKAKK [Unmod H1 variant S K K S V K T P K K A K K] ), measured peptide microarray binding signal is 0.00633

For this binder ( KKSTDHPKYSDMI [Unmod H1 variant K K S T D H P K Y S D M I] ), measured peptide microarray binding signal is 0.00895

For this binder ( SDMIVAAIQAEKN [Unmod H1 variant S D M I V A A I Q A E K N] ), measured peptide microarray binding signal is 0.00514

For this binder ( KKAKKPKTVKAKP [Unmod H1 variant K K A K K P K T V K A K P] ), measured peptide microarray binding signal is 0.00981

For this binder ( EKNNSRIKLGLKS [Unmod H1 variant E K N N S R I K L G L K S] ), measured peptide microarray binding signal is 0.0155

For this binder ( KTAKPKKAAPKKK [Unmod H1 variant K T A K P K K A A P K K K] ), measured peptide microarray binding signal is 0.00729

For this binder ( DSQIKLSIKRLVT [Unmod H1 variant D S Q I K L S I K R L V T] ), measured peptide microarray binding signal is 0.0281
